Test system: MCF7 breast
Assay: NCI tumour cell line growth inhibition, 48 h
READOUT_KIND: TGI (µM)
Numbers only; they are read as µM.

These solved cases illustrate the format of a correct answer.
COMPOUND	TGI / µM
Fc1cc2nc3n(c2cc1F)C(c1c(Cl)cccc1Cl)SC3 (configuration not stated)	33.1
O=C(Nc1ccc(N2CCNCC2)cn1)c1[nH]ncc1Nc1ncnc2sccc12	4.17

Endpoint output: TGI of `COc1ccc2[nH]c3c(C)c4ncccc4c(C)c3c2c1` . Value?
4.81

---

System: HT29 colon
Test: NCI tumour cell line growth inhibition, 48 h
READOUT_KIND: TGI (µM)
Dear colleague, please return just the value in µM, with no unit written.

MOLECULE	TEST_SYSTEM	TGI / µM
CC(C)C1=CC23CCC4C(C)(C(=O)O)CCCC4(C)C2CC1C1C(=O)N(c2cccc(N4C(=O)C5C6CC7C8(C)CCCC(C)(C(=O)O)C8CCC7(C=C6C(C)C)C5C4=O)c2)C(=O)C13 (centres undefined)	HT29 colon	10.8

Reported TGI for COC1C(O)CC(OC2CC(OC3CC(O[C@@H]4C(=O)c5c(cc6cc(OC7CC(OC8CC(O)C(O)C(C)O8)C(O)C(C)O7)c(C)c(O)c6c5O)CC4[C@H](OC)[C@@H](O)C(C)=O)OC(C)C3O)OC(C)C2O)OC1C (some centres undefined) : what is it?
0.0295

Returns the measured TGI for the input molecule. Input: C=C(C)C1CC2=C(O1)C(=O)c1cccc(O)c1C2=O (centres undefined)
3.13

Reported TGI for `CCN(CCCl)c1cc(CN(C)C)cc(NC(=O)c2ccc(C(=O)Nc3ccccc3)cc2)c1` : what is it?
0.414

What TGI value was documented for this molecule, `COc1ccc(C(=O)c2cc(C)c(OC)c(C)c2)c(OC)c1N(C(=O)CCl)C(=O)CCl` ?
22.5

---

Test system: COLO 205 colon
Experiment: NCI tumour cell line growth inhibition, 48 h
READOUT_KIND: TGI (µM)
Return type: number; implicit unit µM.

These solved cases illustrate the format of a correct answer.
MOLECULE	UNIT_OF_MEASUREMENT	RESULT_NUMBER
c1ccc(N2N=C3N(c4ccccc4)C2N3c2ccccc2)cc1	µM	49.1
CC(=O)Oc1cc(Cl)c(OC(C)=O)c2c(OC(C)=O)c(C)c(O[Si](C)(C)C(C)(C)C)cc12	µM	32.5
COc1ccccc1N1CCN(CCCOc2ccc(C(=O)/C=C3/C(=O)Nc4ccccc43)cc2)CC1	µM	33.2
COC(=O)CCCNC(=O)C(=O)c1c(O)c(O)c(C(C)C)c2cc(C)c(-c3c(C)cc4c(C(C)C)c(O)c(O)c(C(=O)C(=O)NCCCC(=O)OC)c4c3O)c(O)c12	µM	2.03
CCN(CC)CCC(=O)N1C/C(=C/c2ccccc2)C(=O)/C(=C\c2ccccc2)C1	µM	6.74
N[C@@H](Cc1ccc2oc3cc(=O)c4ccccc4c-3nc2c1)C(=O)O	µM	38.9

Reported TGI for `CCOC(=O)/C=C(/C(=O)OCC)n1ccc(=O)n(CC(=O)OCC)c1=O` : what is it?
1.63

What value of measured TGI is listed for COc1ccc2c(c1OC)C(C=C(c1ccccc1)c1ccccc1)CN(C)C2 (stereo not given) ?
28.5
